In this section we review reported IC50 values for a set of molecules.
tested on: IL-1β; assay: Inhibition of IL-1β in PMA-differentiated, LPS-stimulated THP-1 cells (ELISA of cell lysate); type: cell-based; settings: Homo sapiens, THP-1, Table 8, PMA 50 ng/mL, LPS 100 ng/mL
Numbers only; they are read as µM.

Sample records with IC50:
O=C1CNC(=O)N1CCCCNc1ncnc2cc(Cl)ccc12 ... 23.1
CC1(C)NC(=O)N(CCCCNc2ncnc3cc(F)ccc23)C1=O ... 53.9
CN1CC(=O)N(CCCCCNc2ncnc3cc(F)ccc23)C1=O ... 154
C[C@@H](CCCN1C(=O)NC2(CC2)C1=O)Nc1ncnc2cc(Cl)ccc12 ... 26.6
O=C1CNC(=O)N1CCCCCNc1ncnc2cc(Cl)ccc12 ... 105

Query: Need IC50 of "O=C1NC2(CCCC2)C(=O)N1CCCCCNc1ncnc2cc(F)ccc12" , thanks.
Response: 21

Query: Need IC50 of CC(CCCN1C(=O)NC2(CCC2)C1=O)Nc1ncnc2cc(Cl)ccc12 (stereo not shown) , thanks.
Response: 16.1

Query: Need IC50 of "CC1(C)NC(=O)N(CCCCCNc2ncnc3cc(F)ccc23)C1=O" , thanks.
Response: 118

Query: Need IC50 of "O=C1NC2(CCC2)C(=O)N1CCCCNc1ncnc2cc(Cl)ccc12" , thanks.
Response: 63.8

Query: Need IC50 of CCN(CCO)CCCC(C)Nc1ccnc2cc(Cl)ccc12 (stereo not shown) [HCQ, Hydroxychloroquine, reference compound] , thanks.
Response: 164

Query: Need IC50 of "C[C@H](CCCN1C(=O)NC2(CC2)C1=O)Nc1ncnc2cc(Cl)ccc12" , thanks.
Response: 110

Query: Need IC50 of "O=C1NC2(CCCC2)C(=O)N1CCCCCNc1ncnc2cc(Cl)ccc12" , thanks.
Response: 37.4

Query: Need IC50 of "O=C1NC2(CCCC2)C(=O)N1CCCCNc1ncnc2cc(Cl)ccc12" , thanks.
Response: 51.6
